target: Somatostatin receptor type 4 (Homo sapiens); assay: Displacement of [125I]-Tyr-SRIF from recombinant human SST4 receptor expressed in CHOK1 cell membranes after 90 mins by gamma counting method
MEASURED PARAMETER: Ki

Please provide the recorded Ki for Clc1ccc(Cn2c(Cc3c[nH]c4ccccc34)nnc2C2CCNCC2)cc1Cl , tested on Somatostatin receptor type 4 (Homo sapiens). > 10 µM

Given the entry Clc1ccc(Cn2c(CCc3c[nH]cn3)nnc2Cc2c[nH]c3ccccc23)cc1Cl , what Ki was observed with Somatostatin receptor type 4 (Homo sapiens)? > 10 µM

Find the measured Ki: item c1ccc(CCn2c(CCc3c[nH]cn3)nnc2CCc2c[nH]c3ccccc23)cc1 , target or system Somatostatin receptor type 4 (Homo sapiens). 2.03 µM

Lab request: please report Ki under test system Somatostatin receptor type 4 (Homo sapiens) for c1ccc(Cn2c(CCc3c[nH]cn3)nnc2Cc2c[nH]c3ccccc23)cc1 > 10 µM

Form field: Ki recorded for Clc1ccc(Cn2c(CCc3c[nH]c4ccccc34)nnc2C2CCNCC2)cc1Cl with Somatostatin receptor type 4 (Homo sapiens) (enter value) > 10 µM

Given the entry c1ccc(Cn2c(CCc3c[nH]c4ccccc34)nnc2C2CCNCC2)cc1 , what Ki was observed with Somatostatin receptor type 4 (Homo sapiens)? > 10 µM

Give Ki (Somatostatin receptor type 4 (Homo sapiens)) of the following compound: NCCCc1nnc(Cc2c[nH]c3ccccc23)n1Cc1ccc(Cl)c(Cl)c1 > 10 µM

Item Clc1ccc(Cc2nnc(CCc3c[nH]cn3)n2CCc2c[nH]c3ccccc23)cc1Cl with Somatostatin receptor type 4 (Homo sapiens) - Ki? 4.8 µM

----------
target: UniProtKB P35346
Sequence (P35346 whole entry): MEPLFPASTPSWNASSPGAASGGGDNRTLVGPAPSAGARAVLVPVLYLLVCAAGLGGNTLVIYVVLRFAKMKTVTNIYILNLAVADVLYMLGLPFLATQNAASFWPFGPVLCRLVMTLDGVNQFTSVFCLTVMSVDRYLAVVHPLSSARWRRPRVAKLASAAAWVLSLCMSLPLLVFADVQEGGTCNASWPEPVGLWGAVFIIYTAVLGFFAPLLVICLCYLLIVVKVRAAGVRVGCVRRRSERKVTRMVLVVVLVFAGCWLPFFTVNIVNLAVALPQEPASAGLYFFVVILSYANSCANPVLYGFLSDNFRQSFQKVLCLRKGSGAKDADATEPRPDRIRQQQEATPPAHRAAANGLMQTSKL
MEASURED PARAMETER: Ki

Query: Ki; subject: Clc1ccc(Cc2nnc(CCc3c[nH]c4ccccc34)n2CCCc2c[nH]cn2)cc1Cl > 10 µM

----------
biological target: UniProt:P30874; assay: Displacement of [125I]-LTT-SRIF-28 from recombinant human SST2 receptor expressed in CHO cell membranes after 60 mins by scintillation counting method
Sequence (P30874 whole entry): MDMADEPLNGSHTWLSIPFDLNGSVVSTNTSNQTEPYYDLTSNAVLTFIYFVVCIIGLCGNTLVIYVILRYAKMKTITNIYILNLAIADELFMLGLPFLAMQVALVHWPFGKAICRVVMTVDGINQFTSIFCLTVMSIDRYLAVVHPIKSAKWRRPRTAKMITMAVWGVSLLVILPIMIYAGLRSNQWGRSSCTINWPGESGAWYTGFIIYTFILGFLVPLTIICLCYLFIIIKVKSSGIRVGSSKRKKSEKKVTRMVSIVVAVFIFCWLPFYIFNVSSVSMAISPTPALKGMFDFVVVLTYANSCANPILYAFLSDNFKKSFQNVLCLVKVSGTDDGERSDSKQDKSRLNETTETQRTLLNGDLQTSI
MEASURED PARAMETER: Ki

Which measured Ki value corresponds to Cc1ccc(S(=O)(=O)N[C@@H](CCN)C(=O)N[C@@H](Cc2ccccc2)C(N)=O)c2ccccc12 ? > 5 µM

----------
biological target: Somatostatin receptor type 4 (Homo sapiens, UniProt P31391); experiment: Displacement of 3-[125I]iodotyrosyl25-somatostatin-28 from recombinant human SST4 receptor expressed in CHOK1 cell membranes after 45 mins by scintillation counting method
Sequence (P31391 whole entry): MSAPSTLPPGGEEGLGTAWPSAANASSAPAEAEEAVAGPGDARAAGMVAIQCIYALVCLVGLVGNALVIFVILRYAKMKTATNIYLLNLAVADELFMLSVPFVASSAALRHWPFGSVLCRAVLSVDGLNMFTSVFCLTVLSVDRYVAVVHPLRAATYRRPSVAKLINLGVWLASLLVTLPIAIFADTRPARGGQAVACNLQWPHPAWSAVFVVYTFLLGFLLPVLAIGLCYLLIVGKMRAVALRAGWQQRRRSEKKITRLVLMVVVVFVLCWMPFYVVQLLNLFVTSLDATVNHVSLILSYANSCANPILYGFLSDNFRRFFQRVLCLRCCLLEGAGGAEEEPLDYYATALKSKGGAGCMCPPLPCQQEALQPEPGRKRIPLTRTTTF
MEASURED PARAMETER: Ki (nM)
The answer is to be given in nM; state only the numeric part.

Record request: Ki value, item COC(=O)[C@H](CCCN=C(N)N)NC(=O)CCCc1c(-c2ccccc2)[nH]c2c(F)cc(F)cc12 0.7

----------
Assign pKi to each entry below.
target: Somatostatin receptor type 4 (Homo sapiens); assay: Displacement of [125I]-Tyr-SRIF from recombinant human SST4 receptor expressed in CHOK1 cell membranes after 90 mins by gamma counting method
Just so you know, pKi here is -log10 of the concentration in molar units; reply with that number alone.

Consider the molecule shown here: NCCCn1c(CCc2c[nH]c3ccccc23)nnc1Cc1ccc(Cl)c(Cl)c1 What is its recorded pKi? 5.62

Please give the measured pKi for this molecule: Clc1ccc(Cc2nnc(CCc3c[nH]c4ccccc34)n2CCCc2c[nH]cn2)cc1Cl 7.72

# lookup: pKi of Clc1ccc(Cn2c(CCc3c[nH]cn3)nnc2CCc2c[nH]c3ccccc23)cc1Cl 5.85

Quick one: pKi for c1ccc(Cn2c(CCc3c[nH]cn3)nnc2CCc2c[nH]c3ccccc23)cc1 ? 5.35

Ref: ChEMBL document CHEMBL4368866
